MIC listing for selected compounds.
Experiment: Antibacterial activity against Eberthella typhosa ATCC 14028 after 24 hrs by micro broth dilution assay
Type: functional
Settings: ATCC 14028, 24 h
Write the number in µM without appending the unit.

Use the examples below as a reference point.
>>> df
                           structure_string  output_unit  value_measured
0  O=c1c2ccc(Cl)cc2ncn1CCCCCn1cnc([N+](=O)[O-])c1           µM             350
1  Cc1ncc([N+](=O)[O-])n1CCCCCn1cnc2cc(F)ccc2c1=O           µM              20
2              O=c1c2ccc(F)cc2ncn1CCn1cncn1           µM             990
3  O=c1c2ccc(Cl)cc2ncn1CCCCCCn1cnc([N+](=O)[O-])c1           µM             340
4  Cc1ncc([N+](=O)[O-])n1CCCCCn1cnc2cc(Cl)ccc2c1=O           µM              20
5             O=c1c2ccc(Cl)cc2ncn1CCn1cncn1           µM             930
6  O=c1c2ccc(Cl)cc2ncn1CCCCCCCCCCn1cnc([N+](=O)[O-])c1           µM             300
7  Cc1ncc([N+](=O)[O-])n1CCCCn1cnc2cc(Cl)ccc2c1=O           µM              20
8  O=c1c2ccc(Cl)cc2ncn1CCn1cnc([N+](=O)[O-])c1           µM             400
9  Cc1ncc([N+](=O)[O-])n1CCn1cnc2cc(Cl)ccc2c1=O           µM              20

Given the entry `Cc1ncc([N+](=O)[O-])n1CCCCCCCCCCn1cnc2cc(Cl)ccc2c1=O` , report its measured MIC. 20

Queued: `O=c1c2ccc(F)cc2ncn1CCCCCn1cnc([N+](=O)[O-])c1` 370

====

Tested on: Staphylococcus aureus
Assay: Antibacterial activity against Staphylococcus aureus ATCC 25923 after 24 hrs by micro broth dilution assay
Assay type: functional
Details: ATCC 25923, 24 h
log10(MIC) listing for selected compounds.
On a log10 scale: recorded MIC, unit µM.

                           structure_string  value_measured
0  O=c1c2ccc(F)cc2ncn1CCCCn1cnc([N+](=O)[O-])c1            2.59
1  Cc1ncc([N+](=O)[O-])n1CCCCCn1cnc2cc(Cl)ccc2c1=O            1.60
2  CCn1cc(C(=O)O)c(=O)c2cc(F)c(N3CCNCC3)cc21            1.00

Given the entry `Cc1ncc([N+](=O)[O-])n1CCn1cnc2cc(F)ccc2c1=O` , report its measured log10(MIC). 1.48

Queued: `O=c1c2ccc(Cl)cc2ncn1CCn1cnc([N+](=O)[O-])c1` 2.90

Queued: `Cc1ncc([N+](=O)[O-])n1CCCCCn1cnc2cc(F)ccc2c1=O` 1.60

Queued: `O=c1c2ccc(Cl)cc2ncn1CCCCCCn1cnc([N+](=O)[O-])c1` 2.53

Queued: `O=c1c2ccc(Cl)cc2ncn1CCCCn1cnc([N+](=O)[O-])c1` 2.57

====

System: Bacillus sp.
Experiment: Antibacterial activity against Bacillus proteus ATCC 13315 after 24 hrs by micro broth dilution assay
Type: functional
Conditions: Bacillus sp. (in: firmicutes), ATCC 13315, 24 h
log10(MIC) listing for selected molecules.
On a log10 scale: recorded MIC, unit µM.

Use the examples below as a reference point.
>>> print(df.to_string())
                                   molecule  readout_type  value_measured
0  Cc1ncc([N+](=O)[O-])n1CCCCCCCCCCn1cnc2cc(Cl)ccc2c1=O    log10(MIC)            1.30
1  Cc1ncc([N+](=O)[O-])n1CCCCCCCCCCn1cnc2cc(F)ccc2c1=O    log10(MIC)            1.30
2          O=c1c2ccc(Cl)cc2ncn1CCCCCCCCCCBr    log10(MIC)            2.51
3           O=c1c2ccc(F)cc2ncn1CCCCCCCCCCBr    log10(MIC)            2.52
4  O=c1c2ccc(Cl)cc2ncn1CCCCCCn1cnc([N+](=O)[O-])c1    log10(MIC)            1.95

Given the entry `Cc1ncc([N+](=O)[O-])n1CCCCCCn1cnc2cc(Cl)ccc2c1=O` , report its measured log10(MIC). 1.30

Queued: `O=c1c2ccc(Cl)cc2ncn1CCCCCn1cnc([N+](=O)[O-])c1` 2.54

Queued: `O=c1c2ccc(Cl)cc2ncn1CCBr` 2.95

Queued: `O=c1c2ccc(F)cc2ncn1CCCCCCBr` 2.59

Queued: `O=c1c2ccc(F)cc2ncn1CCn1ccnc1` 3.30

Queued: `O=c1c2ccc(F)cc2ncn1CCCCCCCCCCn1cnc([N+](=O)[O-])c1` 1.90

Queued: `O=c1c2ccc(Cl)cc2ncn1CCn1cncn1` 2.97

====

System: Pseudomonas aeruginosa
Experiment: Antibacterial activity against Pseudomonas aeruginosa ATCC 27853 a after 24 hrs by micro broth dilution assay
Format: functional
Settings: ATCC 27853, 24 h
MIC listing for selected compounds.

Use the examples below as a reference point.
                           structure_string  readout_type  value_measured
0          O=c1c2ccc(Cl)cc2ncn1CCCCCCCCCCBr           MIC       > 1280 µM
1                   O=c1c2ccc(F)cc2ncn1CCBr           MIC       > 1890 µM
2             O=c1c2ccc(Cl)cc2ncn1CCn1ccnc1           MIC          930 µM
3  Cc1ncc([N+](=O)[O-])n1CCCCCn1cnc2cc(Cl)ccc2c1=O           MIC       > 1360 µM
4  O=c1c2ccc(F)cc2ncn1CCn1cnc([N+](=O)[O-])c1           MIC       > 1690 µM

Shifting focus to the compound that follows.
Given the entry `Cc1ncc([N+](=O)[O-])n1CCCCCCn1cnc2cc(Cl)ccc2c1=O` , report its measured MIC. > 1310 µM

====

MIC listing for selected molecules.
System: Staphylococcus aureus
Assay: Antibacterial activity against Staphylococcus aureus ATCC 25923 after 24 hrs by micro broth dilution assay
Assay type: functional
Conditions: ATCC 25923, 24 h
Write the number in µM without appending the unit.

                           structure_string  readout_type  value_measured
0  O=c1c2ccc(Cl)cc2ncn1CCCCCCCCCCn1cnc([N+](=O)[O-])c1           MIC             300
1  Cc1ncc([N+](=O)[O-])n1CCCCn1cnc2cc(F)ccc2c1=O           MIC              50
2  O=c1c2ccc(F)cc2ncn1CCCCCCn1cnc([N+](=O)[O-])c1           MIC             360
3  Cc1ncc([N+](=O)[O-])n1CCCCCCCCCCn1cnc2cc(Cl)ccc2c1=O           MIC              20

Given the entry `O=c1c2ccc(F)cc2ncn1CCCCCn1cnc([N+](=O)[O-])c1` , report its measured MIC. 190

====

Test system: Candida
Test: Antifungal activity against Candida mycoderma ATCC 9888 after 24 hrs by micro broth dilution assay
Type: functional
Details: ATCC 9888, 24 h
readout_type: MIC (µM)
Write the number in µM without appending the unit.

>>> df
                           structure_string  readout_type  output_unit  value_measured
0              O=c1c2ccc(F)cc2ncn1CCn1cncn1           MIC           µM             490
1  O=c1c2ccc(F)cc2ncn1CCCCn1cnc([N+](=O)[O-])c1           MIC           µM             770

So what MIC did `O=c1c2ccc(F)cc2ncn1CCCCCCCCCCn1cnc([N+](=O)[O-])c1` get with Candida? 40

Queued: `Cc1ncc([N+](=O)[O-])n1CCn1cnc2cc(Cl)ccc2c1=O` 50

Queued: `Cc1ncc([N+](=O)[O-])n1CCCCCCCCCCn1cnc2cc(F)ccc2c1=O` 20

Queued: `O=c1c2ccc(Cl)cc2ncn1CCCCCCCCCCn1cnc([N+](=O)[O-])c1` 40

Queued: `Cc1ncc([N+](=O)[O-])n1CCCCCn1cnc2cc(F)ccc2c1=O` 40

Queued: `O=c1c2ccc(F)cc2ncn1CCn1cnc([N+](=O)[O-])c1` 840

Queued: `O=c1c2ccc(F)cc2ncn1CCCCCCn1cnc([N+](=O)[O-])c1` 40

Reference source for all entries: ChEMBL document CHEMBL3621068
